Target sequence: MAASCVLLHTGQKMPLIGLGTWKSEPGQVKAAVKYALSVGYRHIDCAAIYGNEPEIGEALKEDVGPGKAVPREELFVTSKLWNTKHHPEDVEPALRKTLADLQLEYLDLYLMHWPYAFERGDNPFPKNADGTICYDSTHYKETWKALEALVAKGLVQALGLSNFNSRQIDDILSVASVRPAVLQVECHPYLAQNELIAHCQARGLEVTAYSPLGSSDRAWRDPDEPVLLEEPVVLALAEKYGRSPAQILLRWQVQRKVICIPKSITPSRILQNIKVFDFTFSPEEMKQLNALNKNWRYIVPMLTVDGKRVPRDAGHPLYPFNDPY
pIC50: −log10 of the molar value.
Each item that follows carries a reported pIC50.

compound: COc1ccc(/N=c2\oc3cc(O)ccc3cc2C(=O)Nc2ccccn2)cc1
reported_relation: =
pIC50: 4.60
--
compound: O=C(O)Cc1nn(Cc2nc3cc(C(F)(F)F)ccc3s2)c(=O)c2ccccc12
reported_relation: =
pIC50: 5.57
--
compound: COc1ccc(OC)c(/N=c2\oc3cc(O)ccc3cc2C(=O)Nc2ccccn2)c1
reported_relation: <
pIC50: 4.40
--
compound: O=C1CC2(C(=O)N1)C(=O)N(Cc1ccc(Br)cc1F)C(=O)c1ccc(F)cc12 (centres undefined)
reported_relation: =
pIC50: 8.17
